Target: Cathepsin D (Homo sapiens)
Sequence (P07339 65-162 limits assumed): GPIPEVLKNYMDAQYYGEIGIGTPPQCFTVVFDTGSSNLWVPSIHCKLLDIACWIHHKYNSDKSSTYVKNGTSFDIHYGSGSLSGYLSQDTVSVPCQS
Sequence (P07339 169-412 limits assumed): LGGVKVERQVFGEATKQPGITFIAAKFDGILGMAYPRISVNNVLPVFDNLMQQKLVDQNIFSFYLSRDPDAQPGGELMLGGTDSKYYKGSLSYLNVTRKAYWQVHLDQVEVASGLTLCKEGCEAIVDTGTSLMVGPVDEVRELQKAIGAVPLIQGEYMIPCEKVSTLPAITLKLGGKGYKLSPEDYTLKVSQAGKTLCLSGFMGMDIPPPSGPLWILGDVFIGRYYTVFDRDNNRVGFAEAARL
Assay: Inhibition of human recombinant Cathepsin D by FRET assay
pIC50: −log10 of the molar value.

{"columns": ["Mol", "Target or test system", "pIC50"],
 "data": [
  ["COc1ccc2cc(-c3cn(C[C@@H]4Cc5c([nH]c6ccccc56)CN4)nn3)ccc2c1", "Cathepsin D (Homo sapiens)", "< 4.00"]
]}

* * *

Target: Beta-secretase 1 (Homo sapiens)
Sequence (P56817 whole entry): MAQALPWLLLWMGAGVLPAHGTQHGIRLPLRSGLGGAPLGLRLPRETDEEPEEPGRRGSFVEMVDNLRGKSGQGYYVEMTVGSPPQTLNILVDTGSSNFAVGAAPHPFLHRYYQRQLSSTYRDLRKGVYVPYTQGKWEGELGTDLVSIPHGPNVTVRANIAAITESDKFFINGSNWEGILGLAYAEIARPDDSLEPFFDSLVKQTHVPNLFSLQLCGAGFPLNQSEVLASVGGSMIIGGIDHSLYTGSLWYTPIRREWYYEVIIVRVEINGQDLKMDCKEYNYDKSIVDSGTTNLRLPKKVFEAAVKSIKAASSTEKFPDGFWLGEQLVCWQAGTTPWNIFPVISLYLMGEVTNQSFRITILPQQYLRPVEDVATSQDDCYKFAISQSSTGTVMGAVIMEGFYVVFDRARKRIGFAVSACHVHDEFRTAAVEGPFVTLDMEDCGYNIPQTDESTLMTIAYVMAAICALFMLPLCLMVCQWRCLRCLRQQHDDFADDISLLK
Assay: Inhibition of human BACE1 at 5 uM
Each record here notes measured inhibition.

{"columns": ["Mol", "Target or test system", "inhibition"],
 "data": [
  ["OC1(c2cn(C[C@@H]3Cc4c([nH]c5ccccc45)CN3)nn2)c2ccccc2-c2ccccc21", "Beta-secretase 1 (Homo sapiens)", "< 50%"],
  ["c1ccc2c(-c3cn(C[C@@H]4Cc5c([nH]c6ccccc56)CN4)nn3)cccc2c1", "Beta-secretase 1 (Homo sapiens)", "< 50%"],
  ["CC(=O)c1ccc(-c2cn(C[C@@H]3Cc4c([nH]c5ccccc45)CN3)nn2)cc1", "Beta-secretase 1 (Homo sapiens)", "< 50%"],
  ["c1ccc(SCc2cn(C[C@@H]3Cc4c([nH]c5ccccc45)CN3)nn2)cc1", "Beta-secretase 1 (Homo sapiens)", "< 50%"],
  ["COc1ccc2cc(-c3cn(C[C@@H]4Cc5c([nH]c6ccccc56)CN4)nn3)ccc2c1", "Beta-secretase 1 (Homo sapiens)", "> 50%"],
  ["Cc1ccc(-c2cn(C[C@@H]3Cc4c([nH]c5ccccc45)CN3)nn2)cc1", "Beta-secretase 1 (Homo sapiens)", "< 50%"],
  ["CC(=O)CC(=O)NCc1cn(C[C@@H]2Cc3c([nH]c4ccccc34)CN2)nn1", "Beta-secretase 1 (Homo sapiens)", "< 50%"]
]}

This collection of values is drawn from ChEMBL document CHEMBL1268999.
